Target: mTORC1 (mTOR/GbL/Raptor) (Homo sapiens)
Test: mTOR/GbL/Raptor (mTORC1) ELISA Assay
Type: biochemical
Conditions: 0.2 nM mTORC1, 10 μM ATP, 50 nM NHis-tagged 4E-BP1; phosphorylation of 4E-BP1; read-out: IC50
pIC50: −log10 of the molar value.
pIC50 values by entry

# annotated cases, reported pIC50 shown
COC(=O)Nc1nc2ccc(-c3ccc4c(c3)CN(C(=O)N3CCC(O)(CF)CC3)CCO4)cc2[nH]1 :: 6.60 to 7.30
COC(=O)Nc1nc2ccc(-c3ccc4c(c3)CN(C(=O)N3CCC(C)(O)CC3)CCO4)cc2[nH]1 :: 6.15 to 6.60
Cc1nc2ccc(-c3ccc4c(c3)CN(C(=O)N3CC[C@H](O)C[C@@H]3c3ccc(F)cc3)CCO4)cc2[nH]1 (racemic) :: 6.60 to 7.30
Cc1nc2ccc(-c3ccc4c(c3)CN(C(=O)N3CCCCCC3)CCO4)cc2[nH]1 :: 6.15 to 6.60
CC(F)(F)C1CCN(C(=O)N2CCOc3ccc(-c4cnc5nc(N)[nH]c5c4)cc3C2)CC1 :: ≥ 7.30
Cc1nc2ccc(-c3ccc4c(c3)CN(C(=O)N3CCCC(O)C3)CCO4)cc2[nH]1 (stereo not drawn) :: 6.15 to 6.60
Cc1nc2ccc(-c3ccc4c(c3)CN(C(=O)N(C)CCc3ccccc3)CCO4)cc2[nH]1 :: 5.59 to 6.15
COC(=O)Nc1nc2ccc(-c3ccc4c(c3)CN(C(=O)N3CCC(O)(C(F)(F)F)CC3)CCO4)cc2[nH]1 :: ≥ 7.30
Cc1nc2ccc(-c3ccc4c(c3)CN(C(=O)N3CCCCC3c3ccc(C(F)(F)F)cc3)CCO4)cc2[nH]1 (stereo not drawn) :: ≥ 7.30
N#CC1CCN(C(=O)N2CCOc3ccc(-c4cnc5nc(N)[nH]c5c4)cc3C2)CC1 :: ≥ 7.30

# get_value(readout='pIC50', item= "COc1cccc(N2CCN(C(=O)N3CCOc4ccc(-c5ccc6nc(C)[nH]c6c5)cc4C3)CC2)c1" ) 5.59 to 6.15

// pIC50 lookup, key: Cc1nc2cc(-c3ccc4c(c3)CN(C(=O)N3C[C@H]5CC(C)C[C@H]5C3)CCO4)ccc2[nH]1 (stereo partly drawn) 6.60 to 7.30

Suppose we examine the compound CCC1CC2(CCN(C(=O)N3CCOc4ccc(-c5ccc6nc(C)[nH]c6c5)cc4C3)CC2)CC(=O)N1 (stereo not drawn) ; what pIC50 value has been reported? 6.15 to 6.60

Any idea what its pIC50 is? The compound is Cc1nc2ccc(-c3ccc4c(c3)CN(C(=O)N3CCCC3Cc3ccccc3)CCO4)cc2[nH]1 (stereo not drawn) 6.60 to 7.30

Any idea what its pIC50 is? The compound is "Cc1nc2ccc(-c3ccc4c(c3)CN(C(=O)N3CCC(c5noc(C)n5)CC3)CCO4)cc2[nH]1" 6.15 to 6.60

* * *

Biological target: mTORC1 (mTOR/GbL/Raptor) (Homo sapiens)
Test: mTOR/GbL/Raptor (mTORC1) ELISA Assay
Assay type: biochemical
Details: 0.2 nM mTORC1, 10 μM ATP, 50 nM NHis-tagged 4E-BP1; phosphorylation of 4E-BP1; read-out: IC50
pIC50: −log10 of the molar value.
property.label: pIC50

Cc1nc2ccc(-c3ccc4c(c3)CN(C(=O)N3CCC(Cc5ccccc5)C3)CCO4)cc2[nH]1 (stereo not shown) [Compound 100] :: 6.15 to 6.60

Record Cc1nc2ccc(-c3ccc4c(c3)CN(C(=O)N3CCCCC3c3ccccc3)CCO4)cc2[nH]1 (stereo not shown) [Compound 96] : what is its pIC50 with mTORC1 (mTOR/GbL/Raptor) (Homo sapiens)? ≥ 7.30

Find the measured pIC50: item Cc1nc2ccc(-c3ccc4c(c3)CN(C(=O)N3CCN(C)C(=O)C3)CCO4)cc2[nH]1 [Compound 146] , target or system mTORC1 (mTOR/GbL/Raptor) (Homo sapiens). 6.15 to 6.60

API: value(readout=pIC50, system=mTORC1 (mTOR/GbL/Raptor) (Homo sapiens)) for record CCN(Cc1ccccc1)C(=O)N1CCOc2ccc(-c3ccc4nc(C)[nH]c4c3)cc2C1 [Compound 177] 6.60 to 7.30

* * *

Target: mTORC1 (mTOR/GbL/Raptor) (Homo sapiens, UniProt P42345)
Assay: mTOR/GbL/Raptor (mTORC1) ELISA Assay
Type: biochemical
Details: 0.2 nM mTORC1, 10 μM ATP, 50 nM NHis-tagged 4E-BP1; phosphorylation of 4E-BP1; read-out: IC50
pIC50: −log10 of the molar value.
property.label: pIC50

Look over these answered cases.
Cc1nc2ccc(-c3ccc4c(c3)CN(C(=O)N3CCC(O)CC3)CCO4)cc2[nH]1 :: 6.15 to 6.60
Cc1nc2ccc(-c3ccc4c(c3)CN(C(=O)N3[C@@H]5CC[C@H]3C[C@@H](N)C5)CCO4)cc2[nH]1 :: 5.59 to 6.15

Returns the measured pIC50 for the input molecule. Input: Cc1nc2cc(-c3ccc4c(c3)CN(C(=O)N3CCC(=O)CC3c3cccc(F)c3)CCO4)cnc2[nH]1 (stereo not shown) 6.60 to 7.30

Would you kindly share the measured pIC50 for O=C1CCN(C(=O)N2CCOc3ccc(-c4cnc5[nH]cnc5c4)cc3C2)C(c2cccc(F)c2)C1 (stereo not shown) ? 6.60 to 7.30

* * *

What follows is a record of IC50 for PI3Kα (Homo sapiens).

Cc1nc2ccc(-c3ccc4c(c3)CN(C(=O)N3CCCC3)CCO4)cc2[nH]1 [Compound 87] :: 500 to 1000 nM

Give its IC50 value. Item: O=C(N1CCOc2ccc(-c3cnc4nc[nH]c4c3)cc2C1)N1[C@@H]2CC[C@H]1C[C@](O)(C(F)(F)F)C2 [Compound 178] 200 to 500 nM

Please report the recorded IC50 for Cc1nc2ccc(-c3ccc4c(c3)CN(C(=O)N3CCC(F)(F)CC3)CCO4)cc2[nH]1 [Compound 67] . 1000 to 3000 nM

Any idea what its IC50 is? The compound is Cc1nc2ccc(-c3ccc4c(c3)CN(C(=O)N3CCCCCC3)CCO4)cc2[nH]1 [Compound 89] 500 to 1000 nM

# IC50 lookup, item Cc1nc2ccc(-c3ccc4c(c3)CN(C(=O)N3CCN(C(=O)c5ccco5)CC3)CCO4)cc2[nH]1 [Compound 158] 1000 to 3000 nM

Please look up its IC50: COC(=O)Nc1nc2ncc(-c3ccc4c(c3)CN(C(=O)N3CCC(C(C)(F)F)CC3)CCO4)cc2[nH]1 [Compound 34] ≤ 75 nM

* * *

Target: PI3Kα (Homo sapiens)
Sequence (P42336 whole entry): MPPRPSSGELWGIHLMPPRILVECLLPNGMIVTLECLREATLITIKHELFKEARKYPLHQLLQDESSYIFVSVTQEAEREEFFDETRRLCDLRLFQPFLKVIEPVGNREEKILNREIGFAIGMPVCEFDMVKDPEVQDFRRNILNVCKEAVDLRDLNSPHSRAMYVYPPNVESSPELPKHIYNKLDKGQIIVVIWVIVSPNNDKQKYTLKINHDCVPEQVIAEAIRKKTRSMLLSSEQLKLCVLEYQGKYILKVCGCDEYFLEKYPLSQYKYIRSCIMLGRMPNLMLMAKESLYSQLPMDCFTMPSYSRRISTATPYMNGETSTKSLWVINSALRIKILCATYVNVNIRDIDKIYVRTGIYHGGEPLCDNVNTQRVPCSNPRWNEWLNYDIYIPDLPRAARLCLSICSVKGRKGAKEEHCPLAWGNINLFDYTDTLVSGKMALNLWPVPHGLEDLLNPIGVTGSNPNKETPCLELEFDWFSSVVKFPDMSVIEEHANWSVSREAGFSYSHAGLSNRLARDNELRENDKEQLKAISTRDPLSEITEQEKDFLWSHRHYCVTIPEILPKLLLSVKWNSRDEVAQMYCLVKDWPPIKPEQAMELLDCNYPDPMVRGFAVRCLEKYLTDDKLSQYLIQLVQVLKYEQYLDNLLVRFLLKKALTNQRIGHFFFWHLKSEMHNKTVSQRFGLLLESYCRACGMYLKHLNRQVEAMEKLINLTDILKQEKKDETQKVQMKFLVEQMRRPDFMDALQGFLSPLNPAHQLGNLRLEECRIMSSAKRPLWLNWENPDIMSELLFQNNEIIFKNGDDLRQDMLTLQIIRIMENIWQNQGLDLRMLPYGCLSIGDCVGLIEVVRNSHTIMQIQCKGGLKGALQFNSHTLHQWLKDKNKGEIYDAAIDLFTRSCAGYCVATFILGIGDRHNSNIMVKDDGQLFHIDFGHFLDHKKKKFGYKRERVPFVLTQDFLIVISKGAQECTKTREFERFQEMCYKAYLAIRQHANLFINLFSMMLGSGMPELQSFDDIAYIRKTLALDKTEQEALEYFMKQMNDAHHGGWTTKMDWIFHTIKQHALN
Sequence (P27986 whole entry partner): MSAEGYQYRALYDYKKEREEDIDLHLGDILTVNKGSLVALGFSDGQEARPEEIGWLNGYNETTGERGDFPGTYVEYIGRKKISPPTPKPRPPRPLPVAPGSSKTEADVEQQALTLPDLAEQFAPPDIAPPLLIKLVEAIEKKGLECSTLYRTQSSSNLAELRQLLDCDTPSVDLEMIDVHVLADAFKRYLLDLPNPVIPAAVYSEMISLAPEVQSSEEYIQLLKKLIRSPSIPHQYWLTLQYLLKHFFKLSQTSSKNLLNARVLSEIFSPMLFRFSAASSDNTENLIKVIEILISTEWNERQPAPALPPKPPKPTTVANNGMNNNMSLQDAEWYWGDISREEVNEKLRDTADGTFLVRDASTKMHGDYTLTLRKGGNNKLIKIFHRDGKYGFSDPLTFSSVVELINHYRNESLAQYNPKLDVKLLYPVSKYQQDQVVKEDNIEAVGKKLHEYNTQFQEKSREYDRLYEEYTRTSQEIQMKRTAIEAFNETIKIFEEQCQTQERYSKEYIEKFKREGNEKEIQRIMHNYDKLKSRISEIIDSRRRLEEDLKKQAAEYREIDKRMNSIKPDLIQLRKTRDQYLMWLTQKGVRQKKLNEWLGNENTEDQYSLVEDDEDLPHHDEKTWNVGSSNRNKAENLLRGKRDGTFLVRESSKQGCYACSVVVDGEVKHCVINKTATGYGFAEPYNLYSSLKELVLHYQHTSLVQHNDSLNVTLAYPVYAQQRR
Test: PI3K Biochemical Assays (ATP consumption, luciferase-luciferin chemiluminescence)
Conditions: PI3Kα 1.5 nM, ATP 1 μM, PIP2 10 μM; percent of ATP consumed
property.label: IC50

Answered cases to consult:
COC(=O)Nc1nc2ccc(-c3ccc4c(c3)CN(C(=O)N3CCC(=O)CC3c3ccc(F)cc3)CCO4)cc2[nH]1 (stereo not shown) :: ≤ 75 nM
Cc1nc2ccc(-c3ccc4c(c3)CN(C(=O)N3CCC(Cc5ccc(Cl)cc5)CC3)CCO4)cc2[nH]1 :: 1000 to 3000 nM

Which measured IC50 value corresponds to Cc1nc2ccc(-c3ccc4c(c3)CN(C(=O)N3CC5CCC3C5)CCO4)cc2[nH]1 (stereo not shown) ? 500 to 1000 nM

Item "Cc1nc2ccc(-c3ccc4c(c3)CN(C(=O)N(C)Cc3ccccc3)CCO4)cc2[nH]1" has what recorded IC50? 500 to 1000 nM

State the recorded IC50 for this entry: "CC1CCN(C(=O)N2CCOc3ccc(-c4ccc(-c5ncc[nH]5)cc4)cc3C2)CC1" ≤ 75 nM

* * *

# UniProt:P42336: pIC50 values follow
pIC50: −log10 of the molar value.

Record excerpt, results attached:
Cc1nc2ccc(-c3ccc4c(c3)CN(C(=O)N3CCC(=O)CC3c3ccc(F)c(F)c3)CCO4)cc2[nH]1 (centres unmarked) :: 6.70 to 7.12
O=C1CCN(C(=O)N2CCOc3ccc(-c4ccc(C(=O)NCC(F)F)cc4)cc3C2)C(c2cccc(F)c2)C1 (centres unmarked) :: 6.00 to 6.30
CC(=O)Nc1nc2ccc(-c3ccc4c(c3)CN(C(=O)N3CCC(CF)CC3)CCO4)cc2[nH]1 :: 6.00 to 6.30
Cc1nc2ccc(-c3ccc4c(c3)CN(C(=O)N3CCCC3C)CCO4)cc2[nH]1 (centres unmarked) :: 6.00 to 6.30
Nc1nc2ncc(-c3ccc4c(c3)CN(C(=O)N3[C@@H]5CC[C@H]3C[C@](O)(C(F)(F)F)C5)CCO4)cc2[nH]1 :: ≥ 7.12

Entry under review: "Cc1nc2ccc(-c3ccc4c(c3)CN(C(=O)N3CCC(O)(c5ccc(F)cc5)CC3)CCO4)cc2[nH]1" . Reported pIC50? 6.30 to 6.70

Would you kindly share the measured pIC50 for "Nc1nc2ccc(-c3ccc4c(c3)CN(C(=O)N3CCC(CF)CC3)CCO4)cc2[nH]1" ? 6.30 to 6.70

Entry "O=C(N1CCC(C(F)(F)F)CC1)N1CCOc2ccc(-c3ccc(-c4ncc[nH]4)cc3)cc2C1" has what pIC50? ≥ 7.12
